# SYSTEM NAME: MAPKAPK2 (Homo sapiens, UniProt P49137)
# Construct: purchased Research Biology Corp. (http://www.reactionbiology.com)
# Sequence (P49137 whole entry): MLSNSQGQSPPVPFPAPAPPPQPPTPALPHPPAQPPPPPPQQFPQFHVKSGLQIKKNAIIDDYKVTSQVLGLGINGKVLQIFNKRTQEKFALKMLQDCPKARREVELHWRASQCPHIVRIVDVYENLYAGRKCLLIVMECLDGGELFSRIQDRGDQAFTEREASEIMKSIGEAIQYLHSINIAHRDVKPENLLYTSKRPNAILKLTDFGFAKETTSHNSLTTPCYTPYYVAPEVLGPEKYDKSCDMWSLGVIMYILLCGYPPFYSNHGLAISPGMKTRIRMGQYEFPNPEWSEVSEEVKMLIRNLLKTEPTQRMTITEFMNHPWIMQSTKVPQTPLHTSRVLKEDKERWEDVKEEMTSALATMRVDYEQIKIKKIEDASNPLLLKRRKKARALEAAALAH
# ASSAY DETAILS: Kinase Profiler, residual kinase activity
# Format: biochemical
# PARTICULARS: MAPKAPK2; inhibitor at 500 nM; read-out: percentage of the remaining kinase activity
Listed compounds paired with reported remaining activity at 0.5 µM
State just the number; it will be interpreted in %.

Past entries and their recorded results:
>>> quantitative_result("COC1C(N(C)C(=O)C(N)Cc2c[nH]cn2)CC2OC1(C)n1c3ccccc3c3c4c(c5c6ccccc6n2c5c31)C(=O)NC4 (stereo not shown)")
73.3
>>> quantitative_result("COC1C(N(C)C(=O)C(N)CCC(=O)OC(C)(C)C)CC2OC1(C)n1c3ccccc3c3c4c(c5c6ccccc6n2c5c31)C(=O)NC4 (stereo not shown)")
105
>>> quantitative_result("COC1C(N(C)C(=O)C(N)CCC(=O)O)CC2OC1(C)n1c3ccccc3c3c4c(c5c6ccccc6n2c5c31)C(=O)NC4 (stereo not shown)")
91.8

query: Suppose we examine the compound COC1C(N(C)C(=O)C(N)Cc2ccc(OC(C)(C)C)cc2)CC2OC1(C)n1c3ccccc3c3c4c(c5c6ccccc6n2c5c31)C(=O)NC4 (stereo not shown) ; what remaining activity at 0.5 µM value has been reported?
result: 108

query: Suppose we examine the compound COC1C(N(C)C(=O)C(N)Cc2cn(C(=O)OC(C)(C)C)c3ccccc23)CC2OC1(C)n1c3ccccc3c3c4c(c5c6ccccc6n2c5c31)C(=O)NC4 (stereo not shown) ; what remaining activity at 0.5 µM value has been reported?
result: 106

query: Suppose we examine the compound COC1C(N(C)Cc2ccc(-c3ccccc3)cc2)CC2OC1(C)n1c3ccccc3c3c4c(c5c6ccccc6n2c5c31)C(=O)NC4 (stereo not shown) ; what remaining activity at 0.5 µM value has been reported?
result: 92.5

query: Suppose we examine the compound COC1C(N(C)C(=O)C(N)Cc2ccc(O)cc2)CC2OC1(C)n1c3ccccc3c3c4c(c5c6ccccc6n2c5c31)C(=O)NC4 (stereo not shown) ; what remaining activity at 0.5 µM value has been reported?
result: 95.3
